Values compiled from patent US10316017B2.

target: human Cot catalytic domain (30-397 amino acids) (Homo sapiens, UniProt P41279); construct: Purified recombinant human Cot catalytic domain (30-397 amino acids) was purchased from Cama Biosciences; purchased Cama Biosciences (so in the source); assay: High Throughput Cot Biochemical Assay (KinEASE TR-FRET); conditions: Cot biochemical HTRF (KinEASE TR-FRET) assay; read-out: IC50 HTRF
Sequence (P41279 30-397): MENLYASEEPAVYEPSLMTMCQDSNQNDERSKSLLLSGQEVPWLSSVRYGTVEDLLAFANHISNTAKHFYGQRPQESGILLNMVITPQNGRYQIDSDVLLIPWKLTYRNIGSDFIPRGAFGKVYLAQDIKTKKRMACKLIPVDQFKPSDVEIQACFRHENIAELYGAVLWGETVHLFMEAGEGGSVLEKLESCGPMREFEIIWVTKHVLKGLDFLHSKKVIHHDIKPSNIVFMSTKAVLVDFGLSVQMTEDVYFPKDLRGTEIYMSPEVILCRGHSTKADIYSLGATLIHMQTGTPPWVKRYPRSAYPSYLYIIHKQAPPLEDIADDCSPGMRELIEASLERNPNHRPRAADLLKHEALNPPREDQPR
pIC50: −log10 of the molar value.
PROPERTY_NAME: pIC50

(I) Cn1cc([C@H](Nc2cc(Cl)c3ncc(C#N)c(Nc4ccc(F)c(Cl)c4)c3c2)c2cccc(CN3CCCC3)c2)nn1
(II) COc1[nH]nnc1C(Nc1cc(Cl)c2ncc(C#N)c(Nc3cnc(F)c(F)c3)c2c1)c1ccc(F)cc1 (centres unmarked)
(III) N#Cc1cnc2c(Cl)cc(N[C@@H](c3ccc(F)cc3)c3c[nH]nn3)cc2c1Nc1ccc(Cl)c(Cl)c1F
(IV) N#Cc1cnc2c(Cl)cc(N[C@H](c3c[nH]nn3)c3c(F)cc(F)cc3F)cc2c1Nc1cnc(F)c(F)c1
(V) CC(C)(C)N1CCC(n2cc([C@@H](Nc3cc(Cl)c4ncc(C#N)c(Nc5ccc(F)c(Cl)c5)c4c3)c3ccc(F)cc3)nn2)CC1
Ask: Sort these molecules on pIC50 so the largest reading comes first. I would appreciate it if you listed the labels in the requested order.
Result: V, IV, III, I, II

(a) CC(C)[C@@H](Nc1c(C#N)cnc2c(Cl)cc(N[C@@H](c3ccccc3)c3cn(C4CCN(C(C)(C)C)CC4)nn3)cc12)c1ccccc1
(b) CC(C)(C)C(O)c1cccc([C@H](Nc2cc(Cl)c3ncc(C#N)c(Nc4ccc(F)c(Cl)c4)c3c2)c2cn(C3CCN(C(C)(C)C)CC3)nn2)c1 (some centres unmarked)
(c) N#Cc1cnc2c(Cl)cc(N[C@@H](c3ccc(F)cc3)c3c[nH]nn3)cc2c1NC1CCCC(O)C1 (some centres unmarked) [Example 439]
(d) CCN1CC2(CC(n3cc([C@@H](Nc4cc(Cl)c5ncc(C#N)c(Nc6ccc(F)c(Cl)c6)c5c4)c4ccccc4)nn3)C2)C1
Ask: Sequence the entries by pIC50, beginning with the highest number. Your answer should be the labels, listed in the requested order.
Result: d, a, b, c

(a) CC(C)(O)Cn1cc([C@@H](Nc2cc(Cl)c3ncc(C#N)c(Nc4ccc(F)c(Cl)c4)c3c2)c2ccccc2)nn1
(b) CCN1CCC(n2cc(C(Nc3cc(Cl)c4ncc(C#N)c(Nc5ccc(F)c(Cl)c5)c4c3)c3ccc(F)cc3C)nn2)CC1 (centres unmarked)
(c) C[C@@H](Nc1c(C#N)cnc2c(Cl)cc(N[C@@H](c3ccccc3)c3cn(C4CCN(C(C)(C)C)CC4)nn3)cc12)C1CCOCC1
(d) CC(C)(C)CCNc1c(C#N)cnc2c(Cl)cc(N[C@@H](c3ccccc3)c3cn(C4CCN(C(C)(C)C)CC4)nn3)cc12
Ask: Put these in order: smallest pIC50 first, largest last. Please list the labels in the order you were asked to rank them.
Result: c, d, a, b
(c: 6.10, d: 7.17, a: 7.85, b: 8.05)

---

biological target: human Cot catalytic domain (30-397 amino acids) (Homo sapiens, UniProt P41279); construct: Purified recombinant human Cot catalytic domain (30-397 amino acids) was purchased from Cama Biosciences; purchased Cama Biosciences (so in the source); assay: High Throughput Cot Biochemical Assay (KinEASE TR-FRET); details: Cot KinEASE TR-FRET, 400 μM ATP; read-out: IC50 HTRF
pIC50: −log10 of the molar value.
PROPERTY_NAME: pIC50

| MOLECULE | PROPERTY_NAME | REPORTED_VALUE |
| --- | --- | --- |
| COCc1cccc([C@H](Nc2cc(Cl)c3ncc(C#N)c(Nc4ccc(F)c(Cl)c4)c3c2)c2cn(C3CCN(C(C)(C)C)CC3)nn2)c1 | pIC50 | 8.70 |

(1) CN(C)C(=O)N1CCC[C@@H]1Cn1cc(C(Nc2cc(Cl)c3ncc(C#N)c(Nc4ccc(F)c(Cl)c4)c3c2)c2ccc(F)cc2)nn1 (stereo partly drawn)
(2) N#Cc1cnc2c(Cl)cc(NC(c3ccc(Cl)cc3)c3cn([C@@H]4CCN(C(=O)OCc5ccccc5)C4)nn3)cc2c1Nc1ccc(F)c(Cl)c1 (stereo partly drawn)
(3) Cc1c([C@H](Nc2cc(Cl)c3ncc(C#N)c(NCC(C)(C)C)c3c2)c2cn(C3(C(F)(F)F)CC3)nn2)cccc1-n1cccn1
(4) Cc1cc(F)ccc1C(Nc1cc(Cl)c2ncc(C#N)c(Nc3ccc(F)c(Cl)c3)c2c1)c1cn(C2CCN(C(=O)OCc3ccccc3)CC2)nn1 (stereo not drawn)
(5) CC(C)(C)CNc1c(C#N)cnc2c(Cl)cc(N[C@@H](c3cccc(-n4cccn4)c3)c3cn(C4CC4)nn3)cc12
Ask: Hey, quick one: sort these by pIC50, low to high? API: response body holds the labels in the requested order.
Result: 4, 2, 1, 3, 5

---

test system: TNFα production in LPS-stimulated human monocytes; assay: Cot Monocyte TNFα Cell Based Assay; details: Homo sapiens, Monocyte, LPS-stimulated human monocytes, TNFα TR-FRET; read-out: EC50 TNF
pEC50: −log10 of the molar value.
PROPERTY_NAME: pEC50

// known answers, use as guide
| COMPOUND | PROPERTY_NAME | REPORTED_VALUE |
| --- | --- | --- |
| Cc1c(-c2cnco2)cccc1[C@H](Nc1cc(Cl)c2ncc(C#N)c(NCC(C)(C)C)c2c1)c1cn(C2(C(F)(F)F)CC2)nn1 | pEC50 | 6.99 |
| Cc1c(F)cccc1[C@H](Nc1cc(C#N)c2ncc(C#N)c(NCC(C)(C)C)c2c1)c1cn(C2(C(F)(F)F)CC2)nn1 | pEC50 | 6.66 |
| Cc1cc(C#N)ccc1[C@H](Nc1cc(Cl)c2ncc(C#N)c(NCC(C)(C)C)c2c1)c1cn(C2(C(F)F)CC2)nn1 | pEC50 | 7.14 |

(I) CC(C)(C)CNc1c(C#N)cnc2c(C#N)cc(N[C@H](c3cn(C4(C#N)CC4)nn3)c3ccccc3Cl)cc12
(II) CC(C)(C)CNc1c(C#N)cnc2c(Cl)cc(N[C@@H](c3ccccc3)c3cn(C4(C(F)F)CC4)nn3)cc12
Ask: pEC50 comparison. Which is larger, I or II ? Which one? Tell me its label.
Result: I

(A) [2H][C@](Nc1cc(C#N)c2ncc(C#N)c(NCC(C)(C)C)c2c1)(c1cccc(C#N)c1)c1cn(C2(CF)CC2)nn1
(B) CC(C)(C)CNc1c(C#N)cnc2c(Cl)cc(N[C@@H](c3ccccc3)c3cn(C4(C(F)(F)F)CC4)nn3)cc12
(C) CC[C@@H](Nc1c(C#N)cnc2c(Br)cc(N[C@@H](c3cccc(-c4ncco4)c3)c3cn(C4CC4)nn3)cc12)c1ccccc1
(D) Cc1c([C@H](Nc2cc(Cl)c3ncc(C#N)c(NCC(C)(C)C)c3c2)c2cn(C3(C(F)F)CC3)nn2)cccc1-n1cnnc1
Ask: Ascending by pEC50, please. Write out the labels following the order that was asked for.
Result: B, D, C, A

(1) CC[C@@H](Nc1c(C#N)cnc2c(C#N)cc(N[C@@H](c3cccc(C(=O)N4CC(F)(F)C4)c3)c3cn(C4CC4)nn3)cc12)c1ccccc1
(2) CC[C@@H](Nc1c(C#N)cnc2c(C#N)cc(N[C@@H](c3cccc(-c4ncco4)c3)c3cn(C4CC4)nn3)cc12)c1ccccc1
Ask: Consider 1 and 2 . Which of these has its pEC50 at a higher number? Selection: enter the item's label.
Result: 2

(P) CC(C)(C)CNc1c(C#N)cnc2c(Cl)cc(N[C@H](c3cn(C4(C(F)(F)F)CC4)nn3)c3cccc(C#N)c3Cl)cc12
(Q) [2H][C@](Nc1cc(Cl)c2ncc(C#N)c(NCC(C)(C)C)c2c1)(c1ccc(Cl)cc1)c1cn(C2CC2)nn1
(R) CCN1CCC(n2cc([C@@H](Nc3cc(Cl)c4ncc(C#N)c(NCC(C)(C)C)c4c3)c3ccc(Cl)cc3)nn2)CC1
(S) Cc1nnc(C2(n3cc([C@@H](Nc4cc(C#N)c5ncc(C#N)c(NCC(C)(C)C)c5c4)c4ccccc4Cl)nn3)CC2)o1
Ask: Highest pEC50 first, then in falling order down to the smallest. Labels, ranked as asked.
Result: S, R, Q, P
(S: 7.35, R: 6.89, Q: 6.65, P: 6.36)

---

biological target: human Cot catalytic domain (30-397 amino acids) (Homo sapiens, UniProt P41279); construct: Purified recombinant human Cot catalytic domain (30-397 amino acids) was purchased from Cama Biosciences; purchased Cama Biosciences (so in the source); assay: High Throughput Cot Biochemical Assay (KinEASE TR-FRET); settings: Cot biochemical HTRF (KinEASE TR-FRET) assay; read-out: IC50 HTRF
PROPERTY_NAME: IC50 (µM)

Observe how each entry below is paired with its result.
| COMPOUND | TESTED_TARGET | UNIT_ABBREVIATION | IC50 |
| --- | --- | --- | --- |
| CC1(Nc2c(C#N)cnc3c(Cl)cc(N[C@@H](c4ccccc4)c4cn(C5CCN(C(C)(C)C)CC5)nn4)cc23)CCCCCC1 | human Cot catalytic domain (30-397 amino acids) (Homo sapiens, UniProt P41279) | µM | 0.141 |
| CC(C)(C)N1CCC(n2cc([C@@H](Nc3cc(Cl)c4ncc(C#N)c(Nc5ccc(F)c(Cl)c5)c4c3)c3ccccc3CN3CCOCC3)nn2)CC1 | human Cot catalytic domain (30-397 amino acids) (Homo sapiens, UniProt P41279) | µM | 0.041 |

(1) CN1CC(n2cc([C@@H](Nc3cc(Cl)c4ncc(C#N)c(Nc5ccc(F)c(Cl)c5)c4c3)c3ccccc3)nn2)CC(F)(F)C1 (stereo partly drawn)
(2) CC(C)n1cc([C@@H](Nc2cc(Cl)c3ncc(C#N)c(Nc4ccc(F)c(Cl)c4)c3c2)c2cccc(CN(C)CCN(C)C)c2)nn1
(3) N#Cc1cnc2c(Cl)cc(N[C@@H](c3ccccc3)c3cn(CCN4CCCC4)nn3)cc2c1Nc1ccc(F)c(Cl)c1
(4) CN(C)C(=O)c1cccc([C@H](Nc2cc(Cl)c3ncc(C#N)c(Nc4ccc(Cl)c(Cl)c4F)c3c2)c2cn(C3CCN(C(C)(C)C)CC3)nn2)c1
Ask: Falling order of IC50, please. Write out the labels following the order that was asked for.
Result: 1, 2, 3, 4
